Cited source: the M2OR odorant receptor database

- Target Desc: UniProt Q8VH20
- Sequence (Q8VH20 as listed by the source): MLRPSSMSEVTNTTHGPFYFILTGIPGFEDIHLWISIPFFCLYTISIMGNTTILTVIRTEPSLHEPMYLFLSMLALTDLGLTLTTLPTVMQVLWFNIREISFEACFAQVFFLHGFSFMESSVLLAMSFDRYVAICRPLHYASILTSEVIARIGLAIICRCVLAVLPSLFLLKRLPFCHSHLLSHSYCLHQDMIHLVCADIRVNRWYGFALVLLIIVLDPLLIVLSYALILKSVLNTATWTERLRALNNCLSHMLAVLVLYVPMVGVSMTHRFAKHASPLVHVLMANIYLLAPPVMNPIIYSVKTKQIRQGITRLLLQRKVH
- Assay Conditions: stereoisomer not certain
Write down the outcome that applies. Available outcomes: class 1 for active, class 0 for inactive

The following compounds have reported results that may help.
>>> qualitative_label("CC12CCC(CC1=O)C2(C)C (centres undefined)")
"class 0"
>>> qualitative_label("CCCCCCC=CC=O")
"class 0"
>>> qualitative_label("C=CCOC(=O)CCCCCC")
"class 0"

[ask] Which outcome was assigned to CSSCc1ccco1 in this test?
[reply] class 0

[ask] Which outcome was assigned to CCOC(=O)C(C)C in this test?
[reply] class 0

[ask] Which outcome was assigned to CCCCCC(C=O)=Cc1ccccc1 in this test?
[reply] class 0

[ask] Which outcome was assigned to OCCc1ccccc1 in this test?
[reply] class 0

[ask] Which outcome was assigned to COc1cnccn1 in this test?
[reply] class 0

[ask] Which outcome was assigned to C=C(C)C1CCC(C)C(=O)C1 (centres undefined) in this test?
[reply] class 0

[ask] Which outcome was assigned to CCCCCCCCC(=O)O in this test?
[reply] class 1

[ask] Which outcome was assigned to CCCCCOC(=O)CCCCC in this test?
[reply] class 0

[ask] Which outcome was assigned to Cc1ccc(C(C)C)c(O)c1 in this test?
[reply] class 0

[ask] Which outcome was assigned to CC=CC(=O)C1=C(C)CCCC1(C)C in this test?
[reply] class 0

[ask] Which outcome was assigned to CCCCCCC(C)=O in this test?
[reply] class 0

[ask] Which outcome was assigned to CCCC(C)C(=O)OCC (centres undefined) in this test?
[reply] class 0

* * *

- Target Desc: UniProt Q7TQU8
- Sequence (Q7TQU8 as listed by the source): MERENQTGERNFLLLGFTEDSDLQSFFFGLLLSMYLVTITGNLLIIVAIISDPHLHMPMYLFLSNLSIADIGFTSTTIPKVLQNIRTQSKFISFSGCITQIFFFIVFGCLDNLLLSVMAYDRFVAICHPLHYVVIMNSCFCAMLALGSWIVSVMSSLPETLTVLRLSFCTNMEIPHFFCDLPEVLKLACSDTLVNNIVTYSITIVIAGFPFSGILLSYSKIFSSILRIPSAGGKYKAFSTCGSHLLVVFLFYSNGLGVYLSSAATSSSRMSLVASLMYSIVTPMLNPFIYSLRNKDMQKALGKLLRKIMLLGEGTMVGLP
- Assay Conditions: stereoisomer not certain
Reported Metric: odorant receptor agonist call

Record excerpt, results attached:
>>> result("CC(C)CCN")
"inactive"
>>> result("CC1CCC(C(C)C)C(=O)C1 (configuration not stated)")
"inactive"
>>> result("O=C(OCc1ccccc1)c1ccccc1O")
"inactive"
>>> result("CSSCc1ccco1")
"inactive"
>>> result("CCCCCC1=C(C)CCC1=O")
"inactive"
>>> result("O=C([O-])CCCCCCC(=O)[O-].[H+].[H+]")
"inactive"
>>> result("CCCCCC(=O)CC")
"inactive"
>>> result("CCN(CC)CC")
"inactive"

Case CCCCCCC(C=O)=Cc1ccccc1 , UniProt Q7TQU8, odorant receptor agonist call recorded as inactive

Case CC1(C)CC(=O)CC(=O)C1 , UniProt Q7TQU8, odorant receptor agonist call recorded as inactive

Case CCc1ccccc1O , UniProt Q7TQU8, odorant receptor agonist call recorded as inactive

Case Cc1ccc(C(C)C)c(O)c1 , UniProt Q7TQU8, odorant receptor agonist call recorded as inactive

Case O=C([O-])CCCCCCCC(=O)[O-].[H+].[H+] , UniProt Q7TQU8, odorant receptor agonist call recorded as inactive

Case CCCCCCCCCC=CC=O , UniProt Q7TQU8, odorant receptor agonist call recorded as inactive

Case OCC=Cc1ccccc1 , UniProt Q7TQU8, odorant receptor agonist call recorded as inactive

Case CCCCCCC(C)=O , UniProt Q7TQU8, odorant receptor agonist call recorded as inactive

* * *

- Target Desc: Or5p57 (Mus musculus) (UniProt Q8VEZ0)
- Sequence (Q8VEZ0 whole entry): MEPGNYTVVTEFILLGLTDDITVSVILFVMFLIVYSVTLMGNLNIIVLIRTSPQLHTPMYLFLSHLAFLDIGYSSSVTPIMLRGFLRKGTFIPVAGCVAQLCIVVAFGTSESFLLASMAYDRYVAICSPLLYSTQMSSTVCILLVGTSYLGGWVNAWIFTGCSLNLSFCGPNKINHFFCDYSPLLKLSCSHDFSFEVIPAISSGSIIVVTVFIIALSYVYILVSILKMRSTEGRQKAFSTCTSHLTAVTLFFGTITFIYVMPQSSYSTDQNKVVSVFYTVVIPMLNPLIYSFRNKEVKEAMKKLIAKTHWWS
- Assay Conditions: stereoisomer not certain
Write down the outcome that applies. Available outcomes: 1 for active, 0 for inactive

The following molecules have reported results that may help.
>>> qualitative_label("CCCCC(=O)O")
0
>>> qualitative_label("CCCCCCCCCO")
0
>>> qualitative_label("O=C([O-])CCCCCCC(=O)[O-].[H+].[H+]")
0
>>> qualitative_label("CCCCCCCC(=O)[O-].[H+]")
0

[ask] Which outcome was assigned to CCCCCCCO in this test?
[reply] 1

[ask] Which outcome was assigned to O=C(O)CCCCCBr in this test?
[reply] 0

* * *

- Target Desc: OR5K1 (Homo sapiens)
- Assay Conditions: stereoisomer not certain
Write down the outcome that applies. Available outcomes: true for active, false for inactive

The following compounds have reported results that may help.
>>> qualitative_label("CCC(=O)O")
"false"
>>> qualitative_label("CCCCCCC=CC=O")
"false"
>>> qualitative_label("C=C(C)c1ccc(C)cc1")
"false"

[ask] Which outcome was assigned to CCCCC(S)C(C)CO (stereo not given) in this test?
[reply] false

[ask] Which outcome was assigned to O=C(O)CCc1ccccc1 in this test?
[reply] false

[ask] Which outcome was assigned to CCCCCCCCC=CC=O in this test?
[reply] false

[ask] Which outcome was assigned to Cc1ccc(O)cc1 in this test?
[reply] false

* * *

- Target Desc: UniProt Q8VGJ1
- Sequence (Q8VGJ1 as listed by the source): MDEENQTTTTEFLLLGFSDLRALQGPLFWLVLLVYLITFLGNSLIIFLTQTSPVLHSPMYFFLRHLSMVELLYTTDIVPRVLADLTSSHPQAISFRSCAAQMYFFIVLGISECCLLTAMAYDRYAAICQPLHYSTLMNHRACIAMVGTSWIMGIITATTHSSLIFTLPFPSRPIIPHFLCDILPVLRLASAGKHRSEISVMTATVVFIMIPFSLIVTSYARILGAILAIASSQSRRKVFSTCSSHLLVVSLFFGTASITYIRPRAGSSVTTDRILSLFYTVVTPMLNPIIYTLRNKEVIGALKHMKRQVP
- Assay Conditions: stereoisomer not certain
Write down the outcome that applies. Available outcomes: active, inactive

The following compounds have reported results that may help.
>>> qualitative_label("CCC(=O)O")
"inactive"
>>> qualitative_label("O=C(c1ccccc1)c1ccccc1")
"active"
>>> qualitative_label("COc1cc(C(=O)O)ccc1O")
"inactive"
>>> qualitative_label("C=CCOC(=O)CCCCCC")
"inactive"
>>> qualitative_label("CC(=O)Oc1ccccc1")
"inactive"
>>> qualitative_label("CCCCCCC(C)=O")
"inactive"

[ask] Which outcome was assigned to CCCCCCCCO in this test?
[reply] inactive

[ask] Which outcome was assigned to CCCCCCCCC(=O)O in this test?
[reply] inactive

[ask] Which outcome was assigned to C=C(C)C1CCC(C)C(=O)C1 (configuration not stated) in this test?
[reply] inactive

[ask] Which outcome was assigned to CC12CCC(CC1=O)C2(C)C (configuration not stated) in this test?
[reply] inactive

[ask] Which outcome was assigned to CCOC(=O)C(C)C in this test?
[reply] inactive

[ask] Which outcome was assigned to CCCCCOC(=O)CCCCC in this test?
[reply] inactive

[ask] Which outcome was assigned to CC(=O)OCc1ccccc1 in this test?
[reply] inactive

[ask] Which outcome was assigned to CCCCCC(=O)CC in this test?
[reply] inactive

[ask] Which outcome was assigned to CCC(=O)C(=O)CC in this test?
[reply] inactive

[ask] Which outcome was assigned to CCCCCCCCCS in this test?
[reply] inactive

[ask] Which outcome was assigned to CCCC(=O)C(C)=O in this test?
[reply] inactive

* * *

- Target Desc: UniProt Q7TQV4
- Sequence (Q7TQV4 as listed by the source): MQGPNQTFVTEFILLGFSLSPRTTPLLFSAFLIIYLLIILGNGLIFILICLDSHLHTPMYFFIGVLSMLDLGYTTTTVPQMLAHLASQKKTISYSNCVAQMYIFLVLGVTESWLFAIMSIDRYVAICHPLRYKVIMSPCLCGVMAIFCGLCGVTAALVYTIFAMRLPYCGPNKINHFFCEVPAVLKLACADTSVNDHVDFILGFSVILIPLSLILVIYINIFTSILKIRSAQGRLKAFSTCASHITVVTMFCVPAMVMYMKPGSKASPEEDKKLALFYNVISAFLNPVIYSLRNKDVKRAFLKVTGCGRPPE
- Assay Conditions: stereoisomer not certain
Write down the outcome that applies. Available outcomes: true (1) = active, false (0) = inactive

The following molecules have reported results that may help.
>>> qualitative_label("O=c1ccc2ccccc2o1")
"true (1)"
>>> qualitative_label("CCCCCCCO")
"false (0)"

[ask] Which outcome was assigned to CC(=O)Oc1ccccc1 in this test?
[reply] false (0)

[ask] Which outcome was assigned to CCCCCCCCCC(=O)[O-].[H+] in this test?
[reply] false (0)

[ask] Which outcome was assigned to CCCCCCC(C)=O in this test?
[reply] false (0)

[ask] Which outcome was assigned to CC(C)=CCCC(C)=CCO in this test?
[reply] false (0)

[ask] Which outcome was assigned to O=C1CCOc2ccccc21 in this test?
[reply] false (0)

[ask] Which outcome was assigned to CCCCCCCCCO in this test?
[reply] false (0)

* * *

- Target Desc: UniProt A2AVB5
- Sequence (A2AVB5 as listed by the source): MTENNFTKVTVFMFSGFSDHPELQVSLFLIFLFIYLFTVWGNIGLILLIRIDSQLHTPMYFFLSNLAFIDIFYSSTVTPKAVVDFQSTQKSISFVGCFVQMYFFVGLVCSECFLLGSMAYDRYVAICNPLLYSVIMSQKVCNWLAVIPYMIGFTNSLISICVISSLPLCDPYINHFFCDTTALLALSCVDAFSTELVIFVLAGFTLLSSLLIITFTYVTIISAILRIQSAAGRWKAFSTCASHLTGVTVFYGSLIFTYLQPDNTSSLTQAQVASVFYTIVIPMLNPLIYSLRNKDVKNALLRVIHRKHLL
- Assay Conditions: stereoisomer not certain
Write down the outcome that applies. Available outcomes: TRUE for active, FALSE for inactive

The following compounds have reported results that may help.
>>> qualitative_label("CCCCCC=O")
"FALSE"
>>> qualitative_label("CC12CCC(CC1=O)C2(C)C (stereo not drawn)")
"FALSE"
>>> qualitative_label("CCCCC(=O)O")
"FALSE"
>>> qualitative_label("CCCCCOC(=O)CCCCC")
"FALSE"
>>> qualitative_label("O=c1ccc2ccccc2o1")
"TRUE"
>>> qualitative_label("C=CCOC(=O)CCCCCC")
"FALSE"

[ask] Which outcome was assigned to CC(C)=CCCC(C)=CCO in this test?
[reply] FALSE

[ask] Which outcome was assigned to c1ccccc1 in this test?
[reply] FALSE

* * *

- Target Desc: UniProt Q8VF05
- Sequence (Q8VF05 as listed by the source): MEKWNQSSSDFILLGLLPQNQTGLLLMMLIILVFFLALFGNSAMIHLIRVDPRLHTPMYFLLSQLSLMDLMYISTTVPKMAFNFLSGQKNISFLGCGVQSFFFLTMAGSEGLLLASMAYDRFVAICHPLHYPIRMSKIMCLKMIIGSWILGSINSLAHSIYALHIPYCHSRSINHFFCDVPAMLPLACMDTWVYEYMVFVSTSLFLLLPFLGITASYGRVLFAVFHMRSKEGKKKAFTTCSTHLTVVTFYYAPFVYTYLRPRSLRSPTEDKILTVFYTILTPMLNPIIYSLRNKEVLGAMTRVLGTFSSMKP
- Assay Conditions: stereoisomer not certain
Write down the outcome that applies. Available outcomes: 1 (yes) (active), 0 (no) (inactive)

The following compounds have reported results that may help.
>>> qualitative_label("CC(C)=CCCC(C)CCO (centres undefined)")
"0 (no)"
>>> qualitative_label("CCC(=O)C(=O)CC")
"1 (yes)"
>>> qualitative_label("C=C(C)C1CCC(C)C(=O)C1 (centres undefined)")
"1 (yes)"

[ask] Which outcome was assigned to CCCCCC1=C(C)CCC1=O in this test?
[reply] 1 (yes)

[ask] Which outcome was assigned to CCCCCCCCCCO in this test?
[reply] 0 (no)

[ask] Which outcome was assigned to CCCCCCCCCO in this test?
[reply] 0 (no)

[ask] Which outcome was assigned to O=C(c1ccccc1)c1ccccc1 in this test?
[reply] 0 (no)

[ask] Which outcome was assigned to CCCCC(=O)CC in this test?
[reply] 1 (yes)

[ask] Which outcome was assigned to CC(C)=CCCC(C)=CCO in this test?
[reply] 0 (no)

[ask] Which outcome was assigned to O=c1ccc2ccccc2o1 in this test?
[reply] 0 (no)

[ask] Which outcome was assigned to CCC(=O)O in this test?
[reply] 0 (no)

[ask] Which outcome was assigned to CCCCCC(=O)CC in this test?
[reply] 1 (yes)

[ask] Which outcome was assigned to CCCCCOC(=O)CCCCC in this test?
[reply] 0 (no)

[ask] Which outcome was assigned to O=C1Cc2ccccc2O1 in this test?
[reply] 0 (no)

[ask] Which outcome was assigned to CCCCCCCCC(=O)O in this test?
[reply] 0 (no)

[ask] Which outcome was assigned to c1ccccc1 in this test?
[reply] 1 (yes)

[ask] Which outcome was assigned to CCCCC(C)=O in this test?
[reply] 1 (yes)

[ask] Which outcome was assigned to CC(=O)Oc1ccccc1 in this test?
[reply] 0 (no)

[ask] Which outcome was assigned to CCCCOC=O in this test?
[reply] 0 (no)
